Tested on: P-Akt (S473)
Assay: Cell based AlphaLISA assay, inhibition of P-Akt (S473) (mTORC2 substrate phosphorylation) in MDA-MB-468 cells
Details: Homo sapiens, MDA-MB-468, 4 h, AlphaLISA, two to four hours at 37° C., read-out: pIC50 for Inhibition of mTORC1 and mTORC2 Substrate Phosphorylation, p-AKT 1/2/3 -(S473) (converted)
Protocol: Cell Based AlphaLISA Assays for Determining IC50 for Inhibition of P-Akt (S473), P-4E-BP1 (T37/46), and P-P70S6K (T389) in MDA-MB-468 Cells mTOR Kinase Cellular Assay To measure functional activity of mTORC1 and mTORC2 in cells the phosphorylation of 4EBP1 (Thr37/46) and P70S6K (Thr389), and AKT1/2/3 (Ser473) was monitored using AlphaLisa SureFire Ultra Kits (Perkin Elmer). […] Incubations were terminated by removal of the assay buffer and addition of lysis buffer provided with the assay kit. […]
compounds and their reported IC50

chemical smiles	IC50
CO[C@H]1C[C@@H]2CC[C@@H](C)[C@@](O)(O2)C(=O)C(=O)N2CCCC[C@H]2C(=O)O[C@H]([C@H](C)C[C@@H]2CC[C@H](n3nncc3-c3cccc(-c4cnc(N5CCN(C(=O)CCc6cn(CCOCCOCCOCCC(=O)NCCCCn7nc(-c8ccc9oc(N)nc9c8)c8c(N)ncnc87)nn6)CC5)nc4)c3)[C@H](OC)C2)CC(=O)[C@H](C)/C=C(\C)[C@@H](O)[C@@H](OC)C(=O)[C@H](C)C[C@H](C)/C=C/C=C/C=C/1C	3.16 to 31.6 nM
CCO[C@@H]1C[C@@H]([C@H](C)C[C@@H]2CC[C@@H](O)[C@H](OC)C2)OC(=O)[C@@H]2CCCCN2C(=O)C(=O)[C@]2(O)O[C@@H](CC[C@H]2C)C[C@H](OC)/C(C)=C/C=C/C=C/[C@@H](C)C[C@@H](C)C(=NOCc2cn(CCOCCOCCOCCOCCOCCOCCOCCOCCC(=O)NCCCCn3nc(-c4ccc5oc(N)nc5c4)c4c(N)ncnc43)nn2)[C@H](OC)[C@H](O)/C(C)=C/[C@H]1C	31.6 to 1000 nM
CCO[C@@H]1C[C@@H]([C@H](C)C[C@@H]2CC[C@H](n3cc(CCCC(=O)NCCOCCOCCOCCC(=O)NCCOCCOCCOCCC(=O)NCCCCn4nc(-c5ccc6oc(N)nc6c5)c5c(N)ncnc54)nn3)[C@H](OC)C2)OC(=O)[C@@H]2CCCCN2C(=O)C(=O)[C@]2(O)O[C@@H](CC[C@H]2C)C[C@H](OC)/C(C)=C/C=C/C=C/[C@@H](C)C[C@@H](C)C(=O)[C@H](OC)[C@H](O)/C(C)=C/[C@H]1C	31.6 to 1000 nM
